Molecular target: Human adrenergic α2B receptor (Homo sapiens, UniProt P18089)
Assay: β-Arrestin GPCR functional assay, adrenergic α2B (Protocol B)
Format: cell-based
Details: β-arrestin, antagonist vs nor-epinephrine EC80; read-out: IC50 Adrenergic α2B
Class definitions on IC50: bottom = under 20 nM, middle = from 20 nM up to 90 nM, top = 90 nM and over

>  <compound>
Cc1cc(C)c2c(c1)c1c(n2CC(C)(O)c2cccnc2)CCN2CCCC12 (single isomer, unassigned) [44b]

>  <label>
bottom

$$$$
>  <compound>
CC(O)(Cn1c2c(c3cc(F)ccc31)C1CCCN1CC2)c1ccncc1 (single isomer, unassigned) [31a]

>  <label>
middle

$$$$
>  <compound>
Cc1cc(C)c2c(c1)c1c(n2CC(C)(O)c2ccncc2)CCN2CCCC12 (single isomer, unassigned) [19a]

>  <label>
bottom

$$$$
>  <compound>
OC(Cn1c2c(c3cc(Cl)cc(F)c31)C1CCCN1CC2)c1ccncc1 (single isomer, unassigned) [135b]

>  <label>
bottom

$$$$

INPUT: Hello team, could you let me know which band the following compound falls into: CCOC(Cn1c2c(c3cc(C)ccc31)CN(C)CC2)c1ccncc1 (single isomer, unassigned) [43a]
OUTPUT: top

INPUT: Hello team, could you let me know which band the following compound falls into: OC(Cn1c2c(c3cc(Cl)cc(F)c31)C1CCCN1CC2)c1ccncc1 (single isomer, unassigned) [135a]
OUTPUT: middle

INPUT: Hello team, could you let me know which band the following compound falls into: Cc1cc(C)c2c(c1)c1c(n2CC(C)(O)c2ccncc2)CCN2CCCC12 (single isomer, unassigned) [19b]
OUTPUT: middle

INPUT: Hello team, could you let me know which band the following compound falls into: Cc1cc2c3c(n(CC(C)(O)c4ccncc4)c2cc1Cl)CCN1CCCC31 (single isomer, unassigned) [50a]
OUTPUT: bottom

INPUT: Hello team, could you let me know which band the following compound falls into: Cc1ccc2c(c1)c1c(n2CC(OC2CCCC2)c2ccncc2)CCN(C)C1 (single isomer, unassigned) [35b]
OUTPUT: top

INPUT: Hello team, could you let me know which band the following compound falls into: Cc1ccc2c(c1)c1c(n2CC(C)(O)c2ccnc(F)c2)CCN2CCCC12 (single isomer, unassigned) [48b]
OUTPUT: bottom

INPUT: Hello team, could you let me know which band the following compound falls into: Cc1ccc2c(c1)c1c(n2CC(OCC2CCC2)c2ccncc2)CCN(C)C1 (single isomer, unassigned) [59a]
OUTPUT: middle

INPUT: Hello team, could you let me know which band the following compound falls into: Cc1cc(Cl)c2c(c1)c1c(n2CC(C)(O)c2ccncc2)CCN2CCCC12 (single isomer, unassigned) [91b]
OUTPUT: bottom

INPUT: Hello team, could you let me know which band the following compound falls into: CC(O)(Cn1c2c(c3cc(F)cc(Cl)c31)C1CCCN1CC2)c1cccnc1 (single isomer, unassigned) [89c]
OUTPUT: middle

----------
Biological target: Human adrenergic α2A receptor (Homo sapiens, UniProt P08913)
Sequence (P08913 whole entry): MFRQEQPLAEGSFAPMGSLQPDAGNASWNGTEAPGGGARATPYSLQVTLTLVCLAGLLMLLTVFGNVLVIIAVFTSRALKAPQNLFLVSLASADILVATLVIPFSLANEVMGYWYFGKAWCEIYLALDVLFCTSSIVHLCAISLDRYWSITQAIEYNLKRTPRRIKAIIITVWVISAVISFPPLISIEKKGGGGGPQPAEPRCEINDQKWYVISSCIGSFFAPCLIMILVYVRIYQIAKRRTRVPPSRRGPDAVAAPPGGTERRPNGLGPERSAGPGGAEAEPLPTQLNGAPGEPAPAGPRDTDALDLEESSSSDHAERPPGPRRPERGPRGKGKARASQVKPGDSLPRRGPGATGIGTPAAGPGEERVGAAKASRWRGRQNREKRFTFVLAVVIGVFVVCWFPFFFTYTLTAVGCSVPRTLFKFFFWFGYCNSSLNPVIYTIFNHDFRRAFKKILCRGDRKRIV
Test: β-Arrestin GPCR functional assay, adrenergic α2A (Protocol B)
Assay type: cell-based
Conditions: 0.1 μM compound; nor-epinephrine at EC80 (270 nM)
The entries below come with measured Percentage inhibition, Adrenergic α2A values attached.
Unit % implied. Number only.

>  <molecule>
Cc1cc(C)c2c(c1)c1c(n2CC(C)(O)c2ccncc2)CCN2CCCC12 (single isomer, unassigned) [19b]

>  <quantitative result>
24

$$$$
>  <molecule>
Cc1ccc2c(c1)c1c(n2CC(O)c2ccncc2F)CCN2CCCC12 (single isomer, unassigned) [14a]

>  <quantitative result>
−1

$$$$
>  <molecule>
Cc1ccc2c(c1)c1c(n2CC(O)c2ccncc2F)CCN2CCCC12 (single isomer, unassigned) [14b]

>  <quantitative result>
13

$$$$

Shift focus to the following entry.
INPUT: Hello, please tell me recorded Percentage inhibition, Adrenergic α2A for this one: Cc1ccc2c(c1)c1c(n2CC(C)(O)c2ccncc2)CCN2CCCC12 (single isomer, unassigned) [13b]
OUTPUT: 23

----------
Biological target: Human adrenergic α2B receptor (Homo sapiens)
Sequence (P18089 1-450): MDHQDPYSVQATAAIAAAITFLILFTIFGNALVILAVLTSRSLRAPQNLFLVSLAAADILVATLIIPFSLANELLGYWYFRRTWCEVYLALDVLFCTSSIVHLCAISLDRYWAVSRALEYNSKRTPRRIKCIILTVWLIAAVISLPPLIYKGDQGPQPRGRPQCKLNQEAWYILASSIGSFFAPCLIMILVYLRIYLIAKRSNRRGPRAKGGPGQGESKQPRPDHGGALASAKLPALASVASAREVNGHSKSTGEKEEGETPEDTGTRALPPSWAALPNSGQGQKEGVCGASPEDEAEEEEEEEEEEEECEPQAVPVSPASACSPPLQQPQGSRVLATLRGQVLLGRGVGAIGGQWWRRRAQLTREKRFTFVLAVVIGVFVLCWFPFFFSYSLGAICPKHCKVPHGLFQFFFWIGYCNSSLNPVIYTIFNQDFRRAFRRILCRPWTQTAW
Assay: β-Arrestin GPCR functional assay, adrenergic α2B (Protocol B)
Type: cell-based
Conditions: β-arrestin, antagonist vs nor-epinephrine EC80; read-out: IC50 Adrenergic α2B
The entries below come with measured IC50 values attached.
Report as: number unit

Answered examples (2):
>  <compound>
Cc1cc(F)c2c(c1)c1c(n2CC(C)(O)c2cccnc2)CC2CCCN2C1 (single isomer, unassigned) [61c]

>  <tested on>
Human adrenergic α2B receptor (Homo sapiens)

>  <result>
313 nM

$$$$
>  <compound>
CCCOC(Cn1c2c(c3cc(C)ccc31)CN(C)CC2)c1ccncc1 (single isomer, unassigned) [42a]

>  <tested on>
Human adrenergic α2B receptor (Homo sapiens)

>  <result>
181 nM

$$$$

INPUT: Hello, please tell me recorded IC50 for this one: CC(O)(Cn1c2c(c3cc(F)cc(Cl)c31)C1CCCN1CC2)c1ccncc1 (single isomer, unassigned) [88a]
OUTPUT: 388 nM

INPUT: Hello, please tell me recorded IC50 for this one: Cc1ccc2c(c1)c1c(n2CC(C)(O)c2ccncc2)CCN2CCCC12 (single isomer, unassigned) [13a]
OUTPUT: 30 nM

INPUT: Hello, please tell me recorded IC50 for this one: Cc1cc(F)c2c(c1)c1c(n2CC(O)c2ccncc2)CCN2CCCC12 (single isomer, unassigned) [137a]
OUTPUT: 41.3 nM

----------
Molecular target: Human adrenergic α1B receptor (Homo sapiens, UniProt P35368)
Sequence (P35368 1-520): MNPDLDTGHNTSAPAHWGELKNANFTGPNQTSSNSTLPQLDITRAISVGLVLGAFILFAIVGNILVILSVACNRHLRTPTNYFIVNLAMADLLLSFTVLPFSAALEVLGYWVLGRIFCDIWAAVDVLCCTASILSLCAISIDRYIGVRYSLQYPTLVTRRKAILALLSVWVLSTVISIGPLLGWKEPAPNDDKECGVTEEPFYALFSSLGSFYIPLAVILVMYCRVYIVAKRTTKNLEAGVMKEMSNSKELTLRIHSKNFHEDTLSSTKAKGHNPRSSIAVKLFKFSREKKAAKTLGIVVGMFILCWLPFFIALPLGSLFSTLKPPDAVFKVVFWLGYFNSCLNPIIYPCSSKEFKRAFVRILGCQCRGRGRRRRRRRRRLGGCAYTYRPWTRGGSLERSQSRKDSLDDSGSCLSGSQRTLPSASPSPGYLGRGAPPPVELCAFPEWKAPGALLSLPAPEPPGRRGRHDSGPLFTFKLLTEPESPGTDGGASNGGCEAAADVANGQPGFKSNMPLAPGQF
Test: Radioligand binding, adrenergic α1B (Protocol Group B)
Set-up: purchased Milipore (Millipore)
Settings: 0.1 μM compound; Protocol Group B; read-out: Percentage inhibition of ligand binding, Adrenergic α1B (0.1 μM)
The entries below come with measured inhibition at 0.1 µM values attached.
Unit % implied. Number only.

Answered examples (5):
>  <compound>
Cc1ccc2c(c1)c1c(n2CC(OC(N)=O)c2ccncc2)CCN(C)C1 (single isomer, unassigned)

>  <quantitative result>
9

$$$$
>  <compound>
Cc1ccc2c(c1)c1c(n2CC(O)c2ccncc2)CNC2CCCC12 (single isomer, unassigned) [34c]

>  <quantitative result>
3

$$$$
>  <compound>
Cc1ccc2c(c1)c1c(n2CC(C)(O)c2ccc(N(C)C)nc2)CCN(C)C1 (stereo not shown)

>  <quantitative result>
17

$$$$
>  <compound>
Cc1cc(F)c2c(c1)c1c(n2CC(C)(O)c2cccnc2)CC2CCCN2C1 (single isomer, unassigned) [61c]

>  <quantitative result>
4

$$$$
>  <compound>
Cc1cc(F)c2c(c1)c1c(n2CC(O)c2ccncc2)CCN2CCCC12 (single isomer, unassigned) [137a]

>  <quantitative result>
58

$$$$

INPUT: Hello, please tell me recorded inhibition at 0.1 µM for this one: Cc1ccc2c(c1)c1c(n2CC(C)(O)c2ccnc(F)c2)CCN2CCCC12 (single isomer, unassigned) [48a]
OUTPUT: 85

INPUT: Hello, please tell me recorded inhibition at 0.1 µM for this one: Cc1cc(F)cc2c3c(n(CC(C)(O)c4cccnc4)c12)CC1CCCN1C3 (single isomer, unassigned) [76d]
OUTPUT: 6
